Experiment: Lipid nanoparticle size and polydispersity by dynamic light scattering
Assay type: physicochemical
Details: LNP of lipid/DSPC/cholesterol/PEG-lipid 50:10:38.5:1.5 encapsulating hEPO mRNA
reported-property: polydispersity
// return a plain number; no unit text

Reference set, count: 2
INSERT INTO assay_data (compound, number) VALUES
  ('CCCCCCCCC(CCCCCC)CNC(=O)CCCCCN(CC=C(C)C)CCN(CCO)CCCCC(COC(=O)CCCCCCC)COC(=O)CCCCCCC (stereo not shown) [Compound 149]', 0.043),
  ('CCCCCCCCC(=O)OCC(CCCCN(CCO)CCN(CCCCC(COC(=O)CCCCCCCC)COC(=O)CCCCCCCC)C1CCC1)COC(=O)CCCCCCCC [Compound 166]', 0.092);

Lab note: measured polydispersity of CCCCCCCCCCCCC(O)CN(CCCCCC(=O)OCC(CCCCCC)CCCCCCCC)CCN(CCCCCC(=O)OCCCCCCCCCCC)C1CCC1 (stereo not shown) [Compound 2] was 0.066

Value of measured polydispersity for the entry CCCCCCCCCCCOC(=O)CCCCCN(CCN(CCO)CCCCC(COC(=O)CCCCCCC)COC(=O)CCCCCCC)C1CCC1 [Compound 182] : 0.09

Recorded polydispersity (compound CCCCCCCCOC(CCCCCN(CCO)CCN(CCCCCC(=O)NCC(CCCCCC)CCCCCCCC)C1CCCCCC1)OCCCCCCCC (stereo not shown) [Compound 202] ): 0.042

For this compound ( CCCCCCCCCCCOC(=O)CCCCCN(CCN(CCO)CCCCCC(=O)OCC(CCCCCCCCCC)CCCCCCCCCC)C1CCCCC1 [Compound 47] ), measured polydispersity is 0.037

// field: polydispersity; key: CCCCCCCCC(CCCCCCCC)CC(=O)NCCCCCN(CCN(CCO)CCCCCOC(=O)CC(CCCCCCCC)CCCCCCCC)C1CCCCC1 [Compound 73] ; value = 0.049
